- measurement-description: Partition coefficient (logP)
- Format: physicochemical
- study-conditions: octanol/water
Please mark criterion met if the recorded logP is equal to or greater than 6, and criterion not met if it falls below.

smiles-entry	group-label
CCCOc1c(OCCC)c(OC(=O)CC)c2cc(Cl)ccc2c1OC(=O)CC	criterion met
COc1c(OC)c(OC(C)=O)c2c(NC(C)=O)cccc2c1OC(C)=O	criterion not met
COc1c(OC)c(OC(=O)C(C)(C)C)c2cc(C)c(C)cc2c1OC(=O)C(C)(C)C	criterion met
COc1c(OC)c(OC(C)=O)c2c(C)cccc2c1OC(C)=O	criterion not met
CC(C)(C)C(=O)Oc1c(Oc2ccccc2)c(Oc2ccccc2)c(OC(=O)C(C)(C)C)c2ccccc12	criterion met
CCC(=O)Oc1c(Oc2ccccc2)c(Oc2ccccc2)c(OC(=O)CC)c2ccccc12	criterion not met
CCOc1c(OCC)c(OC(=O)C(C)C)c2cc(Cl)ccc2c1OC(=O)C(C)C	criterion met
CCOc1c(OCC)c(OC(C)=O)c2cc(Cl)ccc2c1OC(C)=O	criterion not met
COc1ccc2c(OC(=O)C(C)(C)C)c(OC)c(OC)c(OC(=O)C(C)(C)C)c2c1	criterion not met
